Study target: human recombinant H-PGDS (Homo sapiens)
Sequence (O60760 whole entry): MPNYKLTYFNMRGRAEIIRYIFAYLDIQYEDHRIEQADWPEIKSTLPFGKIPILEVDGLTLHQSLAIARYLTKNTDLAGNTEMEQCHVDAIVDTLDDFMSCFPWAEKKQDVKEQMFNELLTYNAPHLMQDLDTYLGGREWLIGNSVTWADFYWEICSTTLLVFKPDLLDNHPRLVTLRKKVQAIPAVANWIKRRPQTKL
Method notes: Slightly modified fluorescence intensity h-PGDS TBA enzyme assay (1:40,000 enzyme, 40 second reaction, 1/2 log dilutions, top concentration typically 10 μM)
Assay type: biochemical
Condition set: slightly modified assay: 1:40,000 human recombinant H-PGDS
Property label: pIC50
Give bare numbers, as −log10 of the molar value.

Here's what some known entries look like.
O=C(N[C@H]1CC[C@@H](C(=O)N2CCOCC2)CC1)c1ccc(-c2cccc(F)c2)nc1; 7.85
C[C@@H]1CNCCN1C(=O)[C@H]1CC[C@H](NC(=O)c2ccc(-c3cccc(F)c3)nc2)CC1; 7.66
CCN1CCC(CNC(=O)[C@@H]2CCC[C@H](NC(=O)c3ccc(-c4cccc(F)c4)nc3)C2)C1 (relative stereo) [Example 64J]; 7.71

Please report pIC50 for every entry that follows.
1. C[C@H]1CNCCN1C(=O)[C@H]1CC[C@H](NC(=O)c2ccc(-c3cccc(F)c3)nc2)CC1
2. CN(C)C[C@H]1CC[C@H](NC(=O)c2ccc(-c3cccc(F)c3)nc2)CC1
3. O=C(NC1CCC(N2CCCOCC2)CC1)c1ccc(-c2cccc(F)c2)nc1 (stereo not drawn)
4. O=C(N[C@H]1CCC[C@@H](C(=O)N2CCCC2)C1)c1ccc(-c2cccc(F)c2)nc1 (relative stereo)
5. O=C(N[C@H]1CCC[C@@H](C(=O)N2CCN(C3CC3)CC2)C1)c1ccc(-c2cccc(F)c2)nc1 (relative stereo)

1: 7.78; 2: 7.80; 3: 8.03; 4: 8.30; 5: 7.84

Could you report pIC50 for every entry in the following list?
1. O=C(NC1CCC(N2CCOCC2)CC1)c1ccc(-c2cccc(F)c2)nc1 (single isomer, unassigned) [Example 49]
2. CC(C)NC(=O)[C@H]1CC[C@H](NC(=O)c2ccc(-c3cccc(F)c3)nc2)CC1
3. NC1CN(C(=O)[C@H]2CC[C@H](NC(=O)c3ccc(-c4cccc(F)c4)nc3)CC2)C1
4. O=C(NC1CCC(N2CC[C@@H](O)C2)CC1)c1ccc(-c2cccc(F)c2)nc1 (single isomer, unassigned) [Example 61]
5. CN1CCN(C(=O)[C@H]2CC[C@H](NC(=O)c3ccc(-c4cccc(F)c4)nc3)CC2)CC1
6. CNCCN(C)C(=O)[C@H]1CC[C@@H](NC(=O)c2ccc(-c3cccc(F)c3)nc2)CC1
7. CCN(C)C(=O)[C@@H]1CCC[C@H](NC(=O)c2ccc(-c3cccc(F)c3)nc2)C1 (relative stereo)

1: 7.16; 2: 7.83; 3: 7.89; 4: 7.35; 5: 7.90; 6: 7.50; 7: 7.42
